Experiment: Toxicity liver stage against HepG2, at 10uM
Format: cell-based
Set-up: test concentration 10 uM, cell line HepG2-A16-CD81EGFP
Settings: human, HepG2-A16-CD81EGFP cells; read-out: INHIBITION
assay.endpoint: cytotoxicity at 10 µM (%)
State just the number; it will be interpreted in %.

Below: 4 compounds and their reported cytotoxicity at 10 µM.
compound	cytotoxicity at 10 µM, %
O=C(NCC1CCC1)c1cccc(CN2CCS(=O)(=O)CC2)c1	-7.89
Cc1ncsc1CN1C[C@H](C(=O)N2CCCO2)[C@@H]2CCO[C@@H]2C1	-11.6
CN1C(Cn2cccn2)C[C@@H]2CN(Cc3nccs3)CC[C@@H]21 (stereo not given in full)	3.8
CC(=O)N(Cc1ncc(C)o1)C1CCN(Cc2cc(C)on2)C1 (stereo not given)	-5.03

Now consider the entry below.
-- ask What does the data say about its cytotoxicity at 10 µM? Entry: `Cc1n[nH]c(C)c1CCc1nc(C2CC2)n[nH]1`
-- reply -12
